Data origin: paper PMC8225959

Listed here are compounds together with their documented Biodistribution: Blood.
- experiment: Biodistribution of [111In]In-radiocomplexes in healthy mice
- Assay type: in vivo
- condition details: 15 min p.i.
readout name: Biodistribution: Blood (% I.D./g)

>  <compound>
O=C([O-])CN1CCN(CC(=O)[O-])CCN(CC(=O)NCCOCCOCCOCCOCCOCCOCCOCCOCCOCCOCCOCCNC(=O)CCCC(=O)NCc2ccc(-c3nncnn3)cc2)CCN(CC(=O)[O-])CC1.[111In+3] [[111In]In-DOTA-PEG-Tz]

>  <readout name>
Biodistribution: Blood

>  <unit abbreviation>
% I.D./g

>  <result>
3.1

$$$$
>  <compound>
O=C([O-])CN1CCN(CC(=O)[O-])CCN(C(CCC(=O)NCCOCCOCCOCCOCCOCCOCCOCCOCCOCCOCCOCCNC(=O)CCCC(=O)NCc2ccc(-c3nncnn3)cc2)C(=O)[O-])CCN(CC(=O)[O-])CC1.[111In+3] (stereo not shown) [[111In]In-DOTAGA-PEG-Tz]

>  <readout name>
Biodistribution: Blood

>  <unit abbreviation>
% I.D./g

>  <result>
3.7

$$$$
>  <compound>
O=C([O-])CN1CCN(CC(=O)[O-])CCN(CC(=O)NCc2ccc(-c3nncnn3)cc2)CCN(CC(=O)[O-])CC1.[111In+3] [[111In]In-DOTA-Tz]

>  <readout name>
Biodistribution: Blood

>  <unit abbreviation>
% I.D./g

>  <result>
2.5

$$$$
>  <compound>
O=C([O-])CN1CCN(CC(=O)[O-])CCN(C(CCC(=O)NCc2ccc(-c3nncnn3)cc2)C(=O)[O-])CCN(CC(=O)[O-])CC1.[111In+3] (stereo not shown) [[111In]In-DOTAGA-Tz]

>  <readout name>
Biodistribution: Blood

>  <unit abbreviation>
% I.D./g

>  <result>
3.2

$$$$
